pEC50: recorded values
- Tested on: HIV‐2 [ROD]
- test-summary: Anti-HIV activity, HIV-2 in wild-type CEM/0 cells
- Format: cell-based
- assay-context: Human immunodeficiency virus 2, CCRF-CEM; wild-type CEM/0 cells, mean ±SD n = 2–3; read-out: Antiviral activity CEM/0 HIV‐2 [ROD] EC50
pEC50: −log10 of the molar value.

- molecule: "CCCCCCCCCCCCCCCCCCOP(=O)(OCC(CC)CCCC)OP(=O)(O)OP(=O)(O)OC[C@H]1O[C@@H](n2cc(C)c(=O)[nH]c2=O)C[C@@H]1F (stereo partly drawn) [10ew]"
  pEC50: 6.07
- molecule: "CCCCCCCCCCCCCCCCCCOP(=O)(OCC(CC)CCCC)OP(=O)(O)OP(=O)(O)OC[C@@H]1O[C@H](n2cc(F)c(N)nc2=O)CS1 (stereo partly drawn) [10cw]"
  pEC50: 6.74
- molecule: "CCCCCCCCCCCCCCCCCCOP(=O)(O)OP(=O)(O)OP(=O)(O)OC[C@@H]1O[C@H](n2cc(F)c(N)nc2=O)CS1 [20c, γ‐C18‐FTCTP]"
  pEC50: 6.66

###

- test-summary: in vitro
- assay-context: human, plasma, Plasma (Heparin) t 1/2
half-life at 0.86 mM: recorded values

- compound: "CCCCCCCCCCCCCCCCCCP(=O)(OCc1ccc(OC(=O)CCCC)cc1)OP(=O)(O)OP(=O)(O)OC[C@H]1O[C@@H](n2cc(C)c(=O)[nH]c2=O)C[C@@H]1N=[N+]=[N-] (stereo partly drawn) [10bz, γ‐(AB‐C4)‐γ‐C‐(alkyl‐C18)‐AZTTP]"
  limit-operator: "="
  half-life at 0.86 mM [h]: 7.6
- compound: "Cc1cn([C@H]2C[C@H](N=[N+]=[N-])[C@@H](COP(=O)(O)OP(=O)(O)O)O2)c(=O)[nH]c1=O [AZTDP, reference compound]"
  limit-operator: "="
  half-life at 0.86 mM [h]: 2.8
- compound: "CCCCCCCCCCCCCCCCCCOP(=O)(OCc1ccc(OC(=O)CCCC)cc1)OP(=O)(O)OP(=O)(O)OCC1OC(n2cc(C)c(=O)[nH]c2=O)CC1N=[N+]=[N-] (stereo not drawn) [10by, γ‐(AB‐C4;alkyl‐C18)‐AZTTP]"
  limit-operator: "="
  half-life at 0.86 mM [h]: 5.2
- compound: "CCCCCCCCCCCCCCCCCCOP(=O)(O)OP(=O)(O)OP(=O)(O)OC[C@@H]1C=C[C@H](n2cnc3c(NC4CC4)nc(N)nc32)C1 [20h, γ‐C18‐ABCTP]"
  limit-operator: "="
  half-life at 0.86 mM [h]: 4.8
- compound: "CCCCCCCCCCCCCCCCCCOP(=O)(OCCCC)OP(=O)(O)OP(=O)(O)OC[C@@H]1C=C[C@H](n2cnc3c(NC4CC4)nc(N)nc32)C1 (stereo partly drawn) [10hv, γ‐(C4;C18)‐ABCTP]"
  limit-operator: ">"
  half-life at 0.86 mM [h]: 8
- compound: "CCCCCCCCCCCCCCCCCCP(=O)(OCCCC)OP(=O)(O)OP(=O)(O)OC[C@@H]1C=C[C@H](n2cnc3c(NC4CC4)nc(N)nc32)C1 (stereo partly drawn) [10hx]"
  limit-operator: ">"
  half-life at 0.86 mM [h]: 20
- compound: "CCCCCCCCCCCCCCCCCCOP(=O)(O)OP(=O)(O)OP(=O)(O)OCC1OC(n2cc(C)c(=O)[nH]c2=O)CC1N=[N+]=[N-] (stereo not drawn) [20b, γ‐(alkyl‐C18)‐AZTTP]"
  limit-operator: "="
  half-life at 0.86 mM [h]: 3.7
- compound: "CCCCCCCCCCCCCCCCCCOP(=O)(OCCCC)OP(=O)(O)OP(=O)(O)OC[C@H]1O[C@@H](n2cc(C)c(=O)[nH]c2=O)C[C@@H]1N=[N+]=[N-] (stereo partly drawn) [10bv, γ‐(alkyl‐C4;alkyl‐C18)‐AZTTP]"
  limit-operator: ">"
  half-life at 0.86 mM [h]: 20
- compound: "CCCCCCCCCCCCCCCCCCP(=O)(OCc1ccc(OC(=O)CCCC)cc1)OP(=O)(O)OP(=O)(O)OC[C@@H]1C=C[C@H](n2cnc3c(NC4CC4)nc(N)nc32)C1 (stereo partly drawn) [10hz, γ‐(AB‐C4)‐γ‐C‐(alkyl‐C18)‐ABCTP]"
  limit-operator: "="
  half-life at 0.86 mM [h]: 4.1

###

EC50: recorded values
- Test system: HIV‐2 [ROD]
- test-summary: Anti-HIV activity, HIV-2 in wild-type CEM/0 cells
- Format: cell-based
- assay-context: Human immunodeficiency virus 2, CCRF-CEM, read-out: Antiviral activity CEM/0 HIV‐2 [ROD] EC50
measured-quantity: EC50

- compound: "CCCCCCCCCCCCCCCCCCP(=O)(OCCCC)OP(=O)(O)OP(=O)(O)OC[C@H]1O[C@@H](n2cc(/C=C/Br)c(=O)[nH]c2=O)C[C@@H]1O (some centres unmarked) [10gx]"
  measured-quantity: "EC50"
  value: "> 10000 nM"
- compound: "CCCCCCCCCCCCCCCCCCP(=O)(OCCCC)OP(=O)(O)OP(=O)(O)OC[C@H]1O[C@@H](n2cc(C)c(=O)[nH]c2=O)C[C@@H]1F (some centres unmarked) [10ex]"
  measured-quantity: "EC50"
  value: "520 nM"
- compound: "CCCCCCCCCCCCCCCCCCP(=O)(OCCCC)OP(=O)(O)OP(=O)(O)OC[C@H]1O[C@@H](n2ccc(=O)[nH]c2=O)C[C@@H]1F (some centres unmarked) [10fx]"
  measured-quantity: "EC50"
  value: "29 nM"
- compound: "Cc1cn([C@H]2C[C@H](N=[N+]=[N-])[C@@H](CO[P@](=O)(O)O[P@](=O)(O)OP(=O)(O)O)O2)c(=O)[nH]c1=O [AZTTP, reference compound]"
  measured-quantity: "EC50"
  value: "5.5 nM"
- compound: "CCCCCCCCCCCCCCCCCCP(=O)(OCCCC)OP(=O)(O)OP(=O)(O)OC[C@@H]1C=C[C@H](n2cnc3c(NC4CC4)nc(N)nc32)C1 (some centres unmarked) [10hx]"
  measured-quantity: "EC50"
  value: "44 nM"
- compound: "CCCCCCCCCCCCCCCCCCP(=O)(OCCCC)OP(=O)(O)OP(=O)(O)OC[C@H]1O[C@@H](n2cc(Cl)c(=O)[nH]c2=O)C[C@@H]1F (some centres unmarked) [10dx]"
  measured-quantity: "EC50"
  value: "2230 nM"
- compound: "CCCCCCCCCCCCCCCCCCP(=O)(OCCCC)OP(=O)(O)OP(=O)(O)OC[C@H]1O[C@@H](n2cc(C)c(=O)[nH]c2=O)C[C@@H]1N=[N+]=[N-] (some centres unmarked) [10bx]"
  measured-quantity: "EC50"
  value: "31 nM"
- compound: "CCCCCCCCCCCCCCCCCCP(=O)(OCCCC)OP(=O)(O)OP(=O)(O)OC[C@@H]1O[C@H](n2cc(F)c(N)nc2=O)CS1 (some centres unmarked) [10cx]"
  measured-quantity: "EC50"
  value: "94 nM"

###

- Test system: HIV‐2 [ROD]
- test-summary: Anti-HIV activity, HIV-2 in wild-type CEM/0 cells
- Format: cell-based
- assay-context: Human immunodeficiency virus 2, CCRF-CEM; wild-type CEM/0 cells, mean ±SD n = 2–3; read-out: Antiviral activity CEM/0 HIV‐2 [ROD] EC50
pEC50: −log10 of the molar value.

- compound: "CCCCCCCCCCCCCCCCCCOP(=O)(OCC(CC)CCCC)OP(=O)(O)OP(=O)(O)OC[C@H]1O[C@@H](n2cc(/C=C/Br)c(=O)[nH]c2=O)C[C@@H]1O (some centres unmarked) [10gw]"
  pEC50: 5.38
- compound: "CCCCCCCCCCCCCCCCCCOP(=O)(OCc1ccc(OC(=O)CCCC)cc1)OP(=O)(O)OP(=O)(O)OC[C@H]1O[C@@H](n2cc(Cl)c(=O)[nH]c2=O)C[C@@H]1F (some centres unmarked) [10dy]"
  pEC50: 5.71
- compound: "CCCCCCCCCCCCCCCCCCOP(=O)(OCc1ccc(OC(=O)CCCC)cc1)OP(=O)(O)OP(=O)(O)OC[C@H]1O[C@@H](n2cc(/C=C/Br)c(=O)[nH]c2=O)C[C@@H]1O (some centres unmarked) [10gy]"
  pEC50: 5.54
- compound: "CCCCCCCCCCCCCCCCCCOP(=O)(OCc1ccc(OC(=O)CCCC)cc1)OP(=O)(O)OP(=O)(O)OC[C@@H]1C=C[C@H](n2cnc3c(NC4CC4)nc(N)nc32)C1 (some centres unmarked) [10hy]"
  pEC50: 6.54
- compound: "CCCCCCCCCCCCCCCCCCOP(=O)(OCC(CC)CCCC)OP(=O)(O)OP(=O)(O)OC[C@H]1O[C@@H](n2cc(Cl)c(=O)[nH]c2=O)C[C@@H]1F (some centres unmarked) [10dw]"
  pEC50: 5.66
